- testTarget: erbB2 in a MCF7 derived cell line (Clone 24 cells) (Homo sapiens)
- Construct: a cell line that overexpresses full length wild type erbB2 protein
- Sequence (P04626 23-1255): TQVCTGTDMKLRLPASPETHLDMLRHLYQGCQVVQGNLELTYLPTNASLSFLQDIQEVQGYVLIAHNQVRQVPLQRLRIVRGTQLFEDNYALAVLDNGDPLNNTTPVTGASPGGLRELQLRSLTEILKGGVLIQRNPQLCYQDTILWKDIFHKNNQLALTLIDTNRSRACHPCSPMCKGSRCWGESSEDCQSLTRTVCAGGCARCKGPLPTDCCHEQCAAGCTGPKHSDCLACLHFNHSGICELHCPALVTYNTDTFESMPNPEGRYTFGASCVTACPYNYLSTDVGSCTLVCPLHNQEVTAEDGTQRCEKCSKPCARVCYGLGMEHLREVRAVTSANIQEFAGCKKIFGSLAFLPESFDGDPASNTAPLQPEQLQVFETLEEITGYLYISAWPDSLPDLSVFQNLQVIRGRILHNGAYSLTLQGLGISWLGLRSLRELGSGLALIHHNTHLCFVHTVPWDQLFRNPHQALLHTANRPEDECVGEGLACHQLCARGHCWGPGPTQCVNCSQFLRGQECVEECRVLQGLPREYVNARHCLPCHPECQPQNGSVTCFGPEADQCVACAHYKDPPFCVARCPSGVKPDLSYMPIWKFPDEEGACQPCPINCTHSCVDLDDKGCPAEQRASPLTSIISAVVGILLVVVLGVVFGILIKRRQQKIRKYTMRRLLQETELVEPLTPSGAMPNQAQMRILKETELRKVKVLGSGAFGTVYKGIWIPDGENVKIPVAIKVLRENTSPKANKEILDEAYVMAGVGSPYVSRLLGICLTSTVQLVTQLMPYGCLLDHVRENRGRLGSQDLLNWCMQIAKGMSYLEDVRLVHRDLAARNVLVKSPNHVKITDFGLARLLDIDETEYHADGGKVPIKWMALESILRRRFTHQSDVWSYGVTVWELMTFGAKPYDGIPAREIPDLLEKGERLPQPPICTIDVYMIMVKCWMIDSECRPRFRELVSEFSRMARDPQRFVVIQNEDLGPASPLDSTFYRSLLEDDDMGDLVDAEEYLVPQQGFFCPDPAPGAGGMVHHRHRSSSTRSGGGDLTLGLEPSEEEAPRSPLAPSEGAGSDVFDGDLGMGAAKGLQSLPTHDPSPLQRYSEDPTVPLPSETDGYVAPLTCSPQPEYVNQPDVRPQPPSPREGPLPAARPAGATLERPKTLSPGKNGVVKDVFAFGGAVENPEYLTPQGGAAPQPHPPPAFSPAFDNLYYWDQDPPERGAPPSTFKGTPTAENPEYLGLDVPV
- testName: Test (c) Clone 24 phospho-erbB2 cell assay
- runConditions: 4 hours with compound, read-out: IC50 Test (c): Inhibition of erbB2 tyrosine kinase protein phosphorylation
observable: IC50 (nM)

a. C[C@H](CN(C)C(=O)CO)Oc1cccc2ncnc(Nc3ccc4c(ccn4Cc4ccccn4)c3)c12 [Example 1]
b. C[C@H](COc1cccc2ncnc(Nc3ccc4c(ccn4Cc4ccccn4)c3)c12)N(C)C(=O)CO [Example 2]
Query :: Of a versus b , which is the one with smaller reported IC50? Your answer should be the label attached to the chosen record.
Result :: b

These data points were gathered from patent US20090023759A1.
